Target: PTGER4 (EP4) (Homo sapiens (Human), UniProt P35408)
Sequence (P35408 whole entry): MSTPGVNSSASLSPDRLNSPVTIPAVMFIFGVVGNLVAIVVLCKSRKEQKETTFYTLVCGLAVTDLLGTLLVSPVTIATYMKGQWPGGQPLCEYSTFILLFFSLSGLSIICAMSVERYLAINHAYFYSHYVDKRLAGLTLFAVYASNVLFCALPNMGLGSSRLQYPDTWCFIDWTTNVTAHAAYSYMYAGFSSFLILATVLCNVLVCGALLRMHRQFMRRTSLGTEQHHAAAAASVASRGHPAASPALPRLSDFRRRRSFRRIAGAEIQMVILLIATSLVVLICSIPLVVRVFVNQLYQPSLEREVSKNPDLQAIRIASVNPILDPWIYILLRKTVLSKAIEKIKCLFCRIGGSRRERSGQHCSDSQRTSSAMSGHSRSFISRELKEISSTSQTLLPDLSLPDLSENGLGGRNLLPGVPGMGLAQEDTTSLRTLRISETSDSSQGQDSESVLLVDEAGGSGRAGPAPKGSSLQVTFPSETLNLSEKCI
metric: IC50 (nM)

[
  {
    "molecule": "CSc1cc(-c2cc(NCCc3c(C#N)cc4ccccc4c3C)ncn2)ccc1C(=O)O [Ex 52]",
    "experimental_target": "PTGER4 (EP4) (Homo sapiens (Human), UniProt P35408)",
    "unit_symbol": "nM",
    "IC50": 63
  }
]

(P) C#Cc1c(CCNc2cc(-c3ccc(C(=O)O)c(OC4CCC4)c3)ncn2)ccc2ccccc12 [Ex 131]
(Q) CCOc1cc(-c2cc(NCCc3cc(F)c4sccc4c3)ncn2)ccc1C(=O)NCC(C)(C)O [Example 463]
(R) CCOc1cc(-c2cc(NCCc3cc4ccsc4cc3OC)ncn2)ccc1C(=O)O [Ex 109]
(S) COc1cc2ccccc2c(F)c1CCNc1cc(-c2ccc(C(=O)O)c(SC)c2)ncn1 [Ex 29]
# input # rank_down: sort by IC50, max first Field: ranking. Enter the labels in the order requested.
# output Q, R, P, S

(A) CCOc1cc(-c2cc(NCCc3cc(F)c4cc(C)sc4c3OC)ncn2)sc1C(=O)O [Ex 94]
(B) CCOc1cc(-c2cc(NCCc3ccc4c(c3)COC4)ncn2)sc1C(=O)O [Ex 164]
# input Kindly compare A with B and tell me which has the lower IC50 figure. Mark your answer with the label of the selected entry.
# output A

---

Target: EP2 (Homo sapiens (Human))
Sequence (P43116 whole entry): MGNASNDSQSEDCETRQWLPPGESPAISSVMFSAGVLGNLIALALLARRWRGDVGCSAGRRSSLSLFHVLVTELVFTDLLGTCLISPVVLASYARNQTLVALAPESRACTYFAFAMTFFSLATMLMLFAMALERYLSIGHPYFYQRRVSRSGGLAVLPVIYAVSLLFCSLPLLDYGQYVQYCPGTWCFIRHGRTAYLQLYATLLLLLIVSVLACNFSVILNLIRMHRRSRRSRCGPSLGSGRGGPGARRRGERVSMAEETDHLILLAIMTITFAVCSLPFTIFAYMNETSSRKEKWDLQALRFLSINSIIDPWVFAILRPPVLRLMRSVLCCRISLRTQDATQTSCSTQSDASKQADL
Test: hEP2 cAMP assay (SF295 glioblastoma cells, HTRF cAMP)
Conditions: antagonistic activity
metric: IC50 (nM)

[
  {
    "compound": "CCOc1cc(-c2cc(NCCc3cc(F)c4sccc4c3)ncn2)sc1CC(=O)O [Example 456]",
    "IC50 (nM)": 311
  }
]

(P) CCOc1cc(-c2cc(NCCc3cc4ccsc4cc3OC)ncn2)ccc1OCC(=O)O [Ex 80]
(Q) CCOc1cc(-c2cc(NCCc3cc4c(cc3OC)OCCO4)ncn2)ccc1CC(=O)O [Ex 175]
(R) N#Cc1csc2ccc(CCNc3cc(-c4ccc(C(=O)O)c(OC5CCC5)c4)ncn3)cc12 [Ex 273]
(S) CSc1cc(-c2cc(NCCc3ccc4c(c3)OCCC4)ncn2)ccc1C(=O)O [Ex 285]
# input # rank_down: sort by IC50, max first Field: ranking. Enter the labels in the order requested.
# output S, Q, R, P

---

Biological target: PTGER4 (EP4) (Homo sapiens (Human), UniProt P35408)
Experiment: cell-based
metric: IC50 (µM)

[
  {
    "compound": "CCOc1cc(-c2cc(NCCc3ccc4sccc4c3)ncn2)sc1C(=O)O",
    "IC50, µM": 0.005
  },
  {
    "compound": "CCOc1cc(-c2cc(NCCc3c(OC)cc4occc4c3C)ncn2)ccc1CC(=O)O",
    "IC50, µM": 0.089
  },
  {
    "compound": "CCOc1cc(-c2cc(NCCc3ccc4c(c3)OCC4)ncn2)sc1C(=O)O",
    "IC50, µM": 0.04
  },
  {
    "compound": "CCCc1cc(-c2cc(NCCc3cc4c(cc3OC)OCCO4)ncn2)ccc1C(C)C(=O)O (racemic)",
    "IC50, µM": 0.114
  }
]

(a) CCOc1cc(-c2cc(NCCc3c(OC)cc4c(c3C)OCCO4)ncn2)ccc1C(=O)O
(b) CCOc1cc2c(cc1CCNc1cc(-c3cc(F)c(CC(=O)O)c(OCC)c3)ncn1)OCCO2
(c) CCOc1cc(-c2cc(NCCc3ccc4ccccc4c3C)ncn2)sc1CCC(=O)O
(d) CCOc1nc(-c2cc(NCCc3ccc4ccccc4c3C)ncn2)sc1C(=O)O
# input # rank_down: sort by IC50, max first Field: ranking. Enter the labels in the order requested.
# output a, b, c, d
